Taken from PubChem BioAssay (NCI).

- System: SNB-75 CNS
- method-description: NCI-60 one-dose screen, 48 h
- details: 10 µM unless noted
About 83,000 compounds went through this panel and 20% of them were active in at least one assay; those are over-represented in the sample as a whole. The source made the active and inactive calls. Rule for the calls: active = growth percent below 10; inactive = the rest.
Labels: 1 (active), 0 (inactive)

[[record]]
compound = "O=[N+]([O-])c1cnc(N2CCN(CC3CC3)CC2)nc1N1CCN(CC2CC2)CC1"
cat = 0

[[record]]
compound = "CN(C)CCN1C(=O)c2cccc3c(N)ccc(c23)C1=O"
cat = 0

[[record]]
compound = "CCn1c(O)c(/C=N/NC(=O)C(C)c2ccc(CC(C)C)cc2)sc1=S (centres undefined)"
cat = 1

[[record]]
compound = "Cc1cc(C)nc(SC2=C(Nc3ccc(C)c(Cl)c3)C(=O)N(Cc3ccccc3)C2=O)n1"
cat = 0

[[record]]
compound = "O=C1Nc2c(ccc(Cl)c2Cl)/C1=C\\c1cc(C(F)(F)F)cc(C(F)(F)F)c1"
cat = 0

[[record]]
compound = "COc1cc2c(cc1OC)C(Sc1ccc(SC)cc1)c1c(nc(N)c(C#N)c1N)O2 (centres undefined)"
cat = 1

[[record]]
compound = "CC(=O)O[C@H]1[C@@H]2OC(=O)C(CSc3ccccc3)[C@@H]2C[C@H]2O[C@]2(C)CC/C=C(\\C)CCC[C@@H]1C (some centres undefined)"
cat = 0

[[record]]
compound = "COc1ccc(-n2nc(C)c3c(Nc4ccc(NC(=O)Nc5cccc(C(F)(F)F)c5)cc4)ncnc32)cc1"
cat = 1

[[record]]
compound = "CN(Cc1cc(Cl)cc(Cl)c1O)Cc1cc(Cl)cc(Cl)c1O"
cat = 0

[[record]]
compound = "CC1=CC(=NN=c2cc(C)n([O-])c(C)c2)C=C(C)[N+]1=O"
cat = 0

[[record]]
compound = "COc1ccc(/C=C/C(=O)c2ccc(O)c(CN3CCN(c4cc5c(cc4F)c(=O)c(C(=O)O)cn5C4CC4)CC3)c2)cc1"
cat = 1

[[record]]
compound = "COc1cc(/C=C/C(=O)c2c(C)oc3nc[nH]c(=O)c23)cc(OC)c1OC"
cat = 0

[[record]]
compound = "CC1SC(c2ccc(N(C)C)cc2)N(NC(=O)C(O)(c2ccccc2)c2ccccc2)C1=O (centres undefined)"
cat = 0

[[record]]
compound = "O=CNc1ccc2c(c1)Cc1cccc(NC=O)c1-2"
cat = 0

[[record]]
compound = "CC/C=C\\C[C@H](O)C/C=C1/C(=O)C=C[C@@]1(C)C/C=C\\CCCC(=O)OC"
cat = 0

[[record]]
compound = "C=C(C)[C@@H]1CC[C@]2(C(=O)OC)CC[C@]3(C)[C@H](CC[C@@H]4[C@@]5(C)C/C(=C/c6cccc(I)c6)C(=O)C(C)(C)[C@@H]5CC[C@]43C)[C@@H]12"
cat = 0

[[record]]
compound = "CCCCCCCCCCCCC[N+](C)(C)Cc1ccccc1"
cat = 1

[[record]]
compound = "O=S(=O)(Nc1ccc(I)cc1F)c1ccc(-c2cnc(C3CC3)o2)cc1"
cat = 0

[[record]]
compound = "C#Cc1cccc(NC(=O)c2ccccc2NC(=O)CCl)c1"
cat = 0

